# assay.system: trypsin-like enzyme (Homo sapiens)
# Construct: from tissue; host or cells: cough phlegm (sputum) of patients with chronic disease of the respiratory tract
# Sequence (O60235 187-418): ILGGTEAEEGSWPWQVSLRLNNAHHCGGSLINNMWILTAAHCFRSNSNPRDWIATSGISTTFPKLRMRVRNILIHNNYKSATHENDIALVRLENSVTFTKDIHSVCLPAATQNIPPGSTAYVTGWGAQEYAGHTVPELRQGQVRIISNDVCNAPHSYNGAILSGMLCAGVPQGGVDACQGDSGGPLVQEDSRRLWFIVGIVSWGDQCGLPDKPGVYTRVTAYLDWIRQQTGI
# test.details: Substrate specificity, synthetic MCA substrates (assay method of trypsin activity)
# Format: biochemical
# cond: pH 8.6, 0.1M Tris-HCl; activity on Boc-Phe-Ser-Arg-MCA taken to be 100%
*1 amine or outer side, *2 acyl side, *3 side chain or, on linkers, in order; H or OH if unused. Where a SMILES comes first, the peptide text is derived from it. The star is where a group is joined. AMC = Cc1cc(=O)oc2cc(N*)ccc12; Suc = O=C(CCC(=O)[*:2])[*:1]; Boc = CC(C)(C)OC(=O)*
Give Substrate digestion ratio (%) Trypsin-like enzyme pH 8.6 for every item shown.
Reply with the number and its unit after it.

Below, each entry is followed by its recorded Substrate digestion ratio (%) Trypsin-like enzyme pH 8.6 result.
# compound, reading
rows = [
    ("Cc1cc(=O)oc2cc(NC(=O)[C@H](C)NC(=O)[C@@H]3CCCN3C(=O)[C@H](C)NC(=O)CCC(=O)O)ccc12 [Suc-Ala-Pro-Ala-MCA] (Suc-Ala-Pro-Ala-{AMC})", "0%"),
    ("Cc1cc(=O)oc2cc(NC(=O)[C@@H](N)CC(C)C)ccc12", "0%"),
]

# ---- query compound ----
Return reported Substrate digestion ratio (%) Trypsin-like enzyme pH 8.6; argument: Cc1cc(=O)oc2cc(NC(=O)[C@H](CCCNC(=N)N)NC(=O)[C@H](C)NC(=O)[C@H](CCC(N)=O)NC(=O)OC(C)(C)C)ccc12 [Boc-Gln-Ala-Arg-MCA] (Boc-Gln-Ala-Arg-{AMC}) 52.2%

The measured values listed here are drawn from patent US5804410A.
